Where do these numbers come from? They come from patent US20250034116A1.

test system: CYP enzymes in human liver microsomes (HLM); test: Inhibition of 20-HETE production in human liver microsomes (HLM); assay type: biochemical
hey, just use class 1 if measured IC50 is less than 20 nM, otherwise class 0

>>> print(df.to_string())
                                   compound                               system_name    label
0  O=C(N1CCN(c2ccc(-c3cn[nH]c3)cc2F)CC1)C1(O)CCCCC1 [Compound 132]  CYP enzymes in human liver microsomes (HLM)  class 0

I wonder whether O=C(N1CCCC1)N1CC2CN(c3ccc(-c4cn[nH]c4)c(F)c3F)CC2C1 (centres unmarked) [Compound 127] has IC50 below 20 nM. Can you tell?
class 1

I wonder whether O=C(C1CCN(c2ccc(-c3cn[nH]c3)cc2)CC1)N1Cc2cccnc2C1 [Compound 157] has IC50 below 20 nM. Can you tell?
class 1

I wonder whether C=CCCCCCC(=O)NCC1CCN(c2ccc(-c3cn[nH]c3)cc2)CC1 [Compound 115] has IC50 below 20 nM. Can you tell?
class 0

I wonder whether O=C(N1CCC(c2ccc(-c3cn[nH]c3)cc2F)CC1)N1Cc2ccccc2C1 [Compound 136] has IC50 below 20 nM. Can you tell?
class 1

I wonder whether O=S(=O)(c1ccc(F)cc1)N1CCN(c2ccc(-c3cn[nH]c3)cc2F)CC1 [Compound 134] has IC50 below 20 nM. Can you tell?
class 0

I wonder whether O=C1CCCN1CC1CCN(c2ccc(-c3cn[nH]c3)cc2C(F)(F)F)CC1 [Compound 10] has IC50 below 20 nM. Can you tell?
class 0
